system: SK-MEL-28; assay: NCI tumour cell line growth inhibition, 48 h
The source made the active and inactive calls. Cut-off read from the data, not from the text of the source: active = GI50 up to about 1.1 µM and inactive = higher.
observable: GI50

{"columns": ["compound", "GI50"],
 "data": [
  ["CC(C)c1ccccc1[S+]([O-])c1ccccc1C(C)(C)O (stereo unspecified)", "> 100 µM (inactive)"],
  ["N#Cc1nc(C#N)c(N)[nH]1", "> 100 µM (inactive)"],
  ["CC(=O)O[C@H]1CC[C@@]2(C)C(=CC[C@@H]3C2CC[C@]2(C)Nc4[nH]ncc4CC32)C1 (stereo partly specified)", "32.2 µM (inactive)"],
  ["O=[N+]([O-])c1cc(/N=N/c2c(O)ccc3cc(S(=O)(=O)O)ccc23)c(O)c([N+](=O)[O-])c1", "> 100 µM (inactive)"],
  ["CCOC(=O)/C=C(\\C)c1ccc(Cl)cc1", "> 100 µM (inactive)"]
]}

Entry Nc1ccc(Sc2nnc(N)s2)cc1 : GI50 on SK-MEL-28 = > 100 µM (inactive)

Reported GI50 (SK-MEL-28) for entry Cc1csc2nc(-c3ccncc3)cn12 is > 100 µM (inactive)

Simply: Cc1cccc(NC(=O)c2cc3cc(/N=N/c4ccccc4Cl)ccc3oc2=O)c1 , SK-MEL-28, GI50 = 35.4 µM (inactive)

Let me check: COC(=O)C1CCc2nnc(-c3ccccc3)n21 (stereo unspecified) , system SK-MEL-28, measured GI50 is > 100 µM (inactive)

Reading of GI50 for CCCCSC1=N/C(=C\c2ccco2)C(=O)N1 with SK-MEL-28: 42.5 µM (inactive)

Entry O=C(CCCn1ccnc1[N+](=O)[O-])NCCn1cncc1[N+](=O)[O-] , SK-MEL-28 data, GI50 value: > 100 µM (inactive)

----------
system: SK-MEL-28; assay: NCI tumour cell line growth inhibition, 48 h
Calls of active or inactive are those of the source. Rule as the data show it: active = GI50 up to about 1.1 µM and inactive = higher.
observable: GI50

Some compounds with known GI50 results, for comparison:
{"columns": ["compound", "GI50"],
 "data": [
  ["CC(C)(OCc1ccccc1)c1ccccc1P(c1ccccc1)c1ccccc1", "42.2 µM (inactive)"],
  ["CCO/C=C/C(C)C1(C(=O)OCC)CCCCC1=O (stereo not given)", "> 100 µM (inactive)"],
  ["CC1=C(C(=O)OCCc2ccc([N+](=O)[O-])cc2)C(c2cccc([N+](=O)[O-])c2)C(C(=O)OC(C)C)=C(C)N1 (stereo not given)", "80 µM (inactive)"],
  ["Cc1nc2ccc(Cl)cc2c2c1CCO2", "> 100 µM (inactive)"],
  ["[N-]=[N+]=Nc1nnc(CCCCc2nnc(N=[N+]=[N-])o2)o1", "> 100 µM (inactive)"]
]}

For this compound ( CN(CCCNc1ccc2ncn3c4ccccc4c(=O)c1c23)CCCN1C(=O)c2cccc3cc([N+](=O)[O-])cc(c23)C1=O ), measured GI50 is 1.12 µM (inactive)

According to the records, this compound CN(N=O)C(=O)Nc1ccc(C(=O)O)cc1 displays GI50 of > 100 µM (inactive)

Record N#Cc1c(-c2ccc(Cl)cc2)[nH]c(=O)n(C2OC(CO)C(O)C(O)C2O)c1=O (stereo not given) . Reported GI50: > 100 µM (inactive)

What the record says about COCn1cnc2c(=O)n(-c3ccc(C)cc3)c(=S)n(-c3ccc(C)cc3)c21 : GI50 is > 100 µM (inactive)

Value of GI50 reported for the compound N/N=C1\C(=O)N(c2ccc(Cl)cc2Cl)C(=O)C(=O)C1c1nc2ccccc2o1 (stereo not given) is > 100 µM (inactive)

Data origin, for the record: ChEMBL document CHEMBL1201862
